Origin of the recorded values: a melting point compilation (Tetko et al.; mined from patent text by program, amines drawn as free bases though some values may be those of a salt)

measurement kind: melting point

May I ask what melting point has been recorded for "CC(=O)N1CCC(CC(=O)O)CC1" ?
124 °C

May I ask what melting point has been recorded for "CC(C)(CO)Nc1ccc2c(c1)C(=O)c1ccccc1C2=O" ?
218 to 220 °C

May I ask what melting point has been recorded for "COc1ccc([N+](=O)[O-])cc1C=CC1=NC(C)(C)CO1" ?
115 to 116 °C

May I ask what melting point has been recorded for "CN1C(=O)c2cscc2N(Cc2ccccc2)c2ccccc21" ?
152 to 153 °C

May I ask what melting point has been recorded for CC1Cc2ccccc2P1c1ccccc1P(c1ccccc1)c1ccccc1 (single isomer, unassigned; (+)) ?
40 to 42 °C

May I ask what melting point has been recorded for "CN1Cc2cc(Cl)ccc2C(=O)c2cc(CC(=O)O)ccc21" ?
191 to 194 °C

May I ask what melting point has been recorded for CN1CCC(c2c(O)cc(O)c3c(=O)cc(-c4ccccc4Cl)oc23)C1CN (stereo not given) ?
218 to 219 °C

====

measurement kind: melting point

Use these answered entries as a reference point.
compound	melting point
O=c1cc(-c2nc3ccccc3[nH]2)oc2ccc(Cl)cc12	248 to 250 °C
O=C1c2ccccc2C(=O)N1CCCCN(CCCCN1C(=O)c2ccccc2C1=O)CCOc1cccc2c1SCCC2	66 °C
CC1(C)C2CC[C@]1(C)C(=O)C(C(=O)Nc1ccc(Cl)c(C(F)(F)F)c1)C2=O (stereo partly specified)	118 to 120 °C
COc1cc(OC)c(C(C)=O)c(O)c1C	143 to 144 °C

May I ask what melting point has been recorded for "O=Cc1cc2cc(Cl)c(Cl)cc2nc1Cl" ?
190 to 191 °C

May I ask what melting point has been recorded for "NC(=O)N(O)Cc1cc(Oc2ccc(Cl)cc2)cs1" ?
141 to 142 °C

May I ask what melting point has been recorded for "COc1cc(-c2nc3ccc(OC(F)(F)F)cc3[nH]2)ccc1O" ?
188 to 190 °C

May I ask what melting point has been recorded for Cc1cccc(C(=O)OC2CCCCC2=O)c1 (stereo unspecified) ?
73 to 74 °C

May I ask what melting point has been recorded for "CN(O)C(=O)c1ccc(CCCNc2ccc(O)cc2)cc1" ?
152 to 153 °C

May I ask what melting point has been recorded for CCC(OC)c1c(Br)c(Oc2ncnc3[nH]nnc23)c(OC)c(C)c1C(C)C (stereo unspecified) ?
149 to 150 °C

May I ask what melting point has been recorded for "CCOP(=O)(Cc1ccc(NC(=O)[C@H]2Cc3cc(OC)c(OC)cc3C(=O)CS2)cc1)OCC" ?
96 to 98 °C

May I ask what melting point has been recorded for "CC(C)(C)OC(=O)CN(Cc1cccc(Cl)c1)S(=O)(=O)c1ccc2c(Cl)cnc(Cl)c2c1" ?
141 to 143 °C

May I ask what melting point has been recorded for COC(=O)C1(C)CCc2c(C)c(O)c(C)c(C)c2O1 (stereo unspecified) ?
132 to 135 °C

May I ask what melting point has been recorded for "CC(C)NC(=O)c1ccc(-c2cnc3[nH]c(=O)n(CC4CCCCC4)c3n2)cc1" ?
264 to 268 °C

May I ask what melting point has been recorded for "CC(=O)Sc1ccc(I)cc1" ?
56 to 57 °C

May I ask what melting point has been recorded for CC(=O)OC1CCC2C3CCC4=CC(=O)C(I)CC4(C)C3CCC12C (stereo unspecified) ?
92 °C

May I ask what melting point has been recorded for C#CCOC(=O)C1=C(C)N2CCNC2=C(C(=O)OCC)C1c1cccc([N+](=O)[O-])c1 (stereo unspecified) ?
153 °C

May I ask what melting point has been recorded for "O=C(N[C@@H](CSc1ccc(C(F)(F)F)cc1[N+](=O)[O-])C(=O)O)OCc1ccccc1" ?
150 to 153 °C

May I ask what melting point has been recorded for "CC(C)(C)c1cc(Cc2ccc(Cl)nn2)c(O)c(C(C)(C)C)c1" ?
143 to 144 °C

May I ask what melting point has been recorded for "O=C(Nc1ccc(F)cc1)c1ccccc1F" ?
102 to 104 °C

May I ask what melting point has been recorded for "CC#CNC(=C[N+](=O)[O-])NCCSCc1ccccn1" ?
147 to 148 °C

====

List of melting point values.

compound	readout value
C=CCC(CO)C(O)c1ccccc1 (stereo unspecified)	41 to 43 °C
CN(C[C@H](O)[C@@H](O)[C@H](O)[C@H](O)CO)C(=O)CCCO	78 to 79 °C
Cc1csc2nc3ccccc3c(=O)n12	180 °C
NS(=O)(=O)c1cc2[nH]c(CCl)nc2cc1Cl	296 to 301 °C
C#CCC(C)(C(=O)O)C(=O)O	135 °C
OCC1OC(n2c(Cl)nc3c(Br)c(Br)c(Br)cc32)C(O)C1O (stereo unspecified)	168 to 170 °C
O=C(O)CN1C(=O)C2(COc3cc4c(cc32)CCO4)c2c(Cl)cccc21 (stereo unspecified)	228 to 229 °C
Cc1nc2c(-c3ccc(-c4ccccc4)cc3)nc3ccc(F)cc3c2c(=O)o1	188 to 189 °C
COC(=O)CCC1(CCC(=O)OC)CCC(=O)N1	70 to 73 °C
CCOC(=O)N(Cc1ccccc1)Cn1cc(Cl)cnc1=O	143 °C

May I ask what melting point has been recorded for "[N-]=[N+]=NOS(=O)(=O)N=[N+]=[N-]" ?
60 °C

May I ask what melting point has been recorded for "CCOC(=O)C(C)(C)Cc1c(SC(C)(C)C)c2cc(O)ccc2n1Cc1ccc(Cl)cc1" ?
151 to 152 °C

May I ask what melting point has been recorded for "CCn1ncc2c(NCCc3ccccc3)c3ccc(OC)cc3nc21" ?
163 to 164 °C

May I ask what melting point has been recorded for "CCNCCCN1c2ccccc2N(C)C(=O)c2c(C)cc(C)nc21" ?
101 to 103 °C

May I ask what melting point has been recorded for "BrCc1ccc(-c2nc3ccccn3n2)cc1" ?
196 °C

May I ask what melting point has been recorded for "CCN(CC)c1cc(C)c2c(c1)C(=O)OC2=O" ?
128 °C

May I ask what melting point has been recorded for Cc1cccc(C(=O)NCc2cccc3c2C(=O)N(C2CCC(=O)NC2=O)C3=O)c1 (stereo unspecified) ?
218 to 220 °C

May I ask what melting point has been recorded for CCCC(NC(=O)CN1C(=O)N(c2ccc(C)cc2)C2(CCCCC2)C1=O)c1ccccc1 (stereo unspecified) ?
208 to 210 °C

May I ask what melting point has been recorded for "COC(=O)c1ccccc1S(=O)(=O)NC(=O)n1nc(OCC(F)(F)F)n(C)c1=O" ?
153 °C

May I ask what melting point has been recorded for [N-]=[N+]=NCC1CN(c2ccc(SC(c3ccccc3)(c3ccccc3)c3ccccc3)c(F)c2)C(=O)O1 (stereo unspecified) ?
77 to 79 °C

May I ask what melting point has been recorded for "CN(C)C(=O)N1CCc2ccc(S(=O)(=O)NC(=O)NCC3CCCC3)cc2CC1" ?
165 to 166 °C

====

List of melting point values.

compound	melting point
Cc1cc(C)cc(COC(=O)C(Cc2c[nH]c3ccccc23)NC(=O)c2ccccc2)c1 (stereo unspecified)	133 to 134 °C
COC(=O)c1ccc(CC(C)=O)cc1	40 to 47 °C
CCc1cnc2c(NC(=O)c3c(Cl)cccc3Cl)cccc2c1CC(=O)NCc1ccccn1	162 to 163 °C
COC(=O)c1ccc(Cl)c(NN)c1	218 to 220 °C
CCc1cc(CC)nc(Sc2ccnc3cc(Cl)ccc23)n1	64.8 to 66 °C
CCN1C(=O)SC(=Cc2ccc([N+](=O)[O-])cc2)C1=O	217 to 218 °C
Cc1ccc2c(c1)Oc1cscc1C(=O)N2	209 to 216 °C
COCCOCOc1c(C(C)(C)C)nc(C=NO)nc1C(C)(C)C	90 to 97 °C

May I ask what melting point has been recorded for COC(=O)COc1ccc(Cl)cc1CC1CNC(=O)CN(S(=O)(=O)c2ccc(Cl)cc2)C1=O (stereo unspecified) ?
138 to 140 °C

May I ask what melting point has been recorded for "COC(=O)CCCc1cc2nc(Cl)ccc2n1S(=O)(=O)c1ccc(Br)cc1" ?
102 °C

May I ask what melting point has been recorded for "OCc1ncc(-c2cccs2)s1" ?
67 to 68 °C

====

List of melting point values.

Use these answered entries as a reference point.
compound	readout value
CCCCOC(=O)CNC(=O)c1nc2ccc(OCCCC)cc2cc1OCc1ccccc1	99 to 101 °C
FC1(F)Oc2cccc(-c3n[nH]cc3I)c2O1	142 °C

May I ask what melting point has been recorded for "Cc1cc(-c2cnn3c(C(F)(F)F)cc(-c4ccc(OCC(F)(F)F)c(C(F)(F)F)c4)nc23)cc(C)n1" ?
229 °C

May I ask what melting point has been recorded for "COCCN1CCc2sc(Nc3ncc(F)c(C)n3)nc2-c2c[nH]nc21" ?
261 to 263 °C

May I ask what melting point has been recorded for "CC1(C)CCC(C)(C)c2nc3c(nc21)CCc1c(-c2ccc(C(=O)O)cc2)nn(Cc2cccnc2)c1-3" ?
250 to 252 °C

May I ask what melting point has been recorded for COc1ccc(OC)c(-c2cccc3c2OC(CN)C3)c1 (stereo unspecified) ?
128 to 132 °C

May I ask what melting point has been recorded for "CC(C)(C)Nc1c(NCc2ccc(Cl)c(Cl)c2)c(=O)c1=O" ?
302 to 303 °C

May I ask what melting point has been recorded for "COC(=O)C=Cc1cc(F)ccc1C(=O)O" ?
151 to 153 °C

May I ask what melting point has been recorded for "O=S(=O)(c1nc(-c2ccccc2)c(-c2ccccc2)n1COCc1ccccc1)C(F)(F)C(F)F" ?
97.5 to 98.5 °C

May I ask what melting point has been recorded for OCC1OC(n2cnc3c(NC4CCCCC4)nc(Cl)nc32)CC1O (stereo unspecified) ?
160 to 162 °C

May I ask what melting point has been recorded for "Cc1ccc(S(=O)(=O)OCCN(CCOS(=O)(=O)c2ccc(C)cc2)Sc2ccccc2[N+](=O)[O-])cc1" ?
91 to 93 °C

May I ask what melting point has been recorded for "Cc1ccc(C(=O)CBr)cc1S(N)(=O)=O" ?
146 to 148 °C

May I ask what melting point has been recorded for "Cc1cc(C)nc(Oc2ccc(-c3ccn(CC4CC4)c(=O)c3C#N)c(F)c2)c1" ?
137 °C

May I ask what melting point has been recorded for "c1ccc(-c2cn([C@H]3CN4CCC3CC4)nn2)cc1" ?
132 °C

May I ask what melting point has been recorded for "O=S(=O)(/C=C/c1ccccc1)Nc1ccc(F)cc1" ?
83 to 85 °C

May I ask what melting point has been recorded for "O=c1c2c(Cl)cc(Cl)cc2n(Cc2ccccc2)c(=O)n1Cc1cccc2ccccc12" ?
220 to 226 °C

May I ask what melting point has been recorded for "COc1ccc(-n2nnnc2C)cc1C=O" ?
132 to 134 °C

May I ask what melting point has been recorded for "Cc1c(OCC(F)(F)C(F)F)ccnc1CO" ?
67 to 68 °C

May I ask what melting point has been recorded for "CCOC(=O)c1cc2c(nc(C)n2C)c2c1CCC1(Cc3ccccc3C1)N2" ?
167 to 168 °C

May I ask what melting point has been recorded for CC1(CC(=O)O)CCCCCC1=O (stereo unspecified) ?
43 to 45 °C

May I ask what melting point has been recorded for NS(=O)C12CC3CC(CC(C3)C1)C2 (stereo unspecified) ?
139 to 141 °C
